Measured apparent KD of MS2 coat protein accompanies every entry in the list below.
tested on: MS2 coat protein; experiment: apparent KD of MS2 coat protein; designed switch direction (-1 OFF switch, 1 ON switch): -1; higher = weaker reporter binding; details: input ligand: none
quantity: apparent KD of MS2 coat protein (nM)

>  <seq_text>
CUAUAAGGUGUUAGGAUAUCGGCUCGAGGUACUAGCGAGAAGGAACAUGAGGAUCACCCAUGUGGUCAUGAUUU [Eternabot (L2) Solution 60] (Eterna round: R97, puzzle: Brourd's mod of Exclusion 4)

>  <observed_value>
139

$$$$
>  <seq_text>
UGAUCUAGCGGAGGAUAUACAUGAGGAUCACCCAUGUAGACUCUAUGACCGUAGUCGUGGAGAGUGUAGAAGGCCGCUAGAUCU [JL ENG2 3.75] (Eterna round: R96, puzzle: Exclusion NG 2)

>  <observed_value>
13.1

$$$$
>  <seq_text>
CACUUACAUGAGGAUCACCCAUGUGAGGAUAUCGUGACCUGACGAGAAGUCAAUGUCACGAGAAGGCACGUGGG [Exclusion 1 (Mod 3 solution 97 by Eternabot)] (Eterna round: R97, puzzle: Exclusion 1)

>  <observed_value>
35.9

$$$$
>  <seq_text>
GUCAGCUCGUCAGGAUAUACAUGAGGAUCACCCAUGUGAUCAAUAGCAGCUUCGGCUGCAUACAUGUAGAAGGGACGAGCUGAC [ENG2/6-B1] (Eterna round: R96, puzzle: Exclusion NG 2)

>  <observed_value>
35.5

$$$$

====

test system: MS2 coat protein; experiment: apparent KD of MS2 coat protein; designed switch direction (-1 OFF switch, 1 ON switch): -1; higher = weaker reporter binding; conditions: input ligand: microRNA oligo, concentration not stated
Measured apparent KD of MS2 coat protein accompanies every entry in the list below.

>  <seq_text>
AAGCGCGAGGCAGGAUAUGCAGAGCGGGUGGCCCGUGCAGAAAAUAACAUGAGGAUCACCCAUGUGCAGAAGGGCCGGGUGACC [Anataredra] (Eterna round: R96, puzzle: Exclusion NG 2)

>  <apparent KD of MS2 coat protein / nM>
36.1

$$$$
>  <seq_text>
ACAUCACAGCUAGGAUAUAGAUGACAUGAGGAUCACCCAUGUUGUCCCAUGUUGACGAAAACCGACUAGAAGGAGCUACAGAUG [Ex NG2 #5] (Eterna round: R96, puzzle: Exclusion NG 2)

>  <apparent KD of MS2 coat protein / nM>
52.6

$$$$
>  <seq_text>
AGAGUGCUGCGAGGAUAUACAUGAGGAUCACCCAUGUUUUCCUGUGAGGCUUUGCCUCACAGGAUGUAGAAGGCGCAGUACUCA [Mat - Exclusion NG 2 - Mod of JL - D38] (Eterna round: R96, puzzle: Exclusion NG 2)

>  <apparent KD of MS2 coat protein / nM>
9.65

$$$$
>  <seq_text>
UUAAUUCUGAUUCUUGAAAUACAUGAGGAUCACCCAUGUUCACAGGAUAUUGAUUAUGGUAGUAACAAGAAGGGUGUAUCAUAU [JR_ExcNG3_Sub039] (Eterna round: R96, puzzle: Exclusion NG 3)

>  <apparent KD of MS2 coat protein / nM>
64.8

$$$$
>  <seq_text>
ACAUGAGGAUCACCCAUGUCGAGUACAUGAGGAUCACCCAUGUAGGAUAUGGUUCGCUUUGCGUGCUAGAAGGAUAUAUGUUGA [salish99_ExNG3_r04_511] (Eterna round: R96, puzzle: Exclusion NG 3)

>  <apparent KD of MS2 coat protein / nM>
297

$$$$
>  <seq_text>
AUAAAACAUGUAGGAUAUGCGUAGCGAAGCUAUGCAGAAGGACAUGAGGAUCACCCAUGUCUUUCCGUCUGCGAACAGACGGAA [Mat - Exclusion NG 1 - Mod of JL - D44] (Eterna round: R96, puzzle: Exclusion NG 1)

>  <apparent KD of MS2 coat protein / nM>
13.8

$$$$
>  <seq_text>
UUGUUGUAUGUAGGAUAUGCAUAUUAUUAUUGUGCAGAAGGACAUGAGGAUCACCCAUGUAUAUUAUUAUUAUAUGUUAUAUAU [Title] (Eterna round: R96, puzzle: Exclusion NG 1)

>  <apparent KD of MS2 coat protein / nM>
22.1

$$$$
>  <seq_text>
ACAUGAGGAUCACCCAUGUUUGGCUGGUUCUCUCCGGCUGUUGAGGAUAUAGUCCGGUAUCCGCGCUAGAAGGUGAGGGCUGGC [Aenatbe mod 7] (Eterna round: R96, puzzle: Exclusion NG 3)

>  <apparent KD of MS2 coat protein / nM>
15.8

$$$$
>  <seq_text>
AGAUCUAGGACAGGAUAUACGGAUGUCUUCAUCGAAGAUGAAGACAUUACAUGAGGAUCACCCAUGUAGAAGGGUCCUAGAUCA [Omei Exc(NG) 2Av1] (Eterna round: R96, puzzle: Exclusion NG 2)

>  <apparent KD of MS2 coat protein / nM>
10.6

$$$$
